Sourced from PubChem BioAssay

# ASSAY DETAILS: Plasmodium falciparum growth inhibition, primary screen, strain 3D7, DAPI fluorescence, 100 nL (AID 1184);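 note: parasites grown inside human red blood cells in medium with human serum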
# PARTICULARS: P. falciparum 3D7 growth, 3 d, higher = more signal
Exercise: for every item that follows, state its recorded z-score.
Respond using a number only.

[ask] Retrieve z-score measured for COC(=O)[C@H](Cc1ccc(O)cc1)N1CC2=CCCC=C[C@@H]2[C@H]1[C@H](O)Cc1ccccc1 and print it.
[reply] -1.63

[ask] Indicate its recorded z-score; the molecule in question is CO[C@H]1O[C@H](CO)[C@@H](OC(=O)Nc2ccccc2)[C@@H]2OC(=O)[C@H](Cc3ccccc3)C/C=C/C[C@@H](Cc3ccccc3)C(=O)O[C@@H]12
[reply] -1.42

[ask] Give reported z-score value for COc1ccc([Si](C)(C)[C@H]2[C@H](CCO)O[C@@]3(C(=O)N(Cc4ccc(N5CCOC5=O)cc4)c4ccccc43)[C@@H]2C)cc1
[reply] -2.76

[ask] Please report the measured z-score for COCCOC(=O)N1C(=O)[C@@]2(c3cc(C#CCCO)ccc31)[C@H](c1ccccc1OCCO)N1[C@H](c3ccccc3)[C@H](c3ccccc3)OC(=O)[C@H]1[C@@H]2C(=O)N1CCc2cc(OC)c(OC)cc2C1
[reply] -1.75

[ask] State its z-score: COc1ccc(CCNC(=O)[C@@]2(Sc3ccc(C)cc3)CC(=O)N(Cc3cc(C(F)(F)F)cc(C(F)(F)F)c3)[C@@H]2c2ccc(CO)cc2)cc1
[reply] 0.264

[ask] Quick one: give measured z-score for C=CCNC(=O)[C@H]1[C@@H]2C(=O)O[C@@H](c3ccccc3)[C@@H](c3ccccc3)N2[C@@H](c2ccc(O)cc2)[C@]12C(=O)Nc1ccc(C#CC3=CCCCC3)cc12
[reply] -0.51

[ask] Item CC(C)c1ccc(NN2C(C(O)C(C)C)C=CC3C(=O)N(c4ccccc4)C(=O)C32)cc1 (centres undefined) : provide z-score
[reply] -0.63

[ask] Fill in reported z-score for this entry: COC(=O)c1ccc([C@H](NC(=O)c2ccccc2)[C@]2(C)C[C@H]2C2CCCCC2)cc1
[reply] -0.631

[ask] Hello, please tell me recorded z-score for this one: COCCOC(=O)N1C(=O)[C@@]2(c3cc(C#CC4=CCCCC4)ccc31)[C@H](c1ccccc1OCCO)N1[C@H](c3ccccc3)[C@H](c3ccccc3)OC(=O)[C@H]1[C@@H]2C(N)=O
[reply] -2.27

[ask] Return the recorded z-score value; entry: CCCCC(=C=CC[C@@H](O)c1cccc(OCCO)c1)C[C@@H](O)COCc1ccccc1
[reply] -1.1

[ask] Give z-score for the following molecule: CC1CC/C=C\[C@H]2OC34C=CCN(CCN5CCOCC5)C(=O)[C@H]3N(CCCCCCO)C(=O)[C@@H]4C2C(=O)O1 (some centres undefined)
[reply] 1.04

[ask] Give the value of z-score reported for the following: CCCCC(=C=CC[C@@H](O)c1cccc(OCCO)c1)CCO
[reply] -0.0161

[ask] Hello, please tell me recorded z-score for this one: CCCCCCc1nc(-c2ccc(OC)nc2)cc2c1[Si](C(C)C)(C(C)C)OC2
[reply] -1.99

[ask] Provide one value: measured z-score of COC(=O)C1=CC(CCCO)=CC(C2CC2)N(Cc2cccc(OC(F)(F)F)c2)C=C1C(=O)OC (centres undefined)
[reply] -1.37
